Biological target: T1, glucose-dependent insulinotropic peptide (gastric inhibitory polypeptide) receptor (human, UniProt P48546 22-466)
T1 sequence (looked up): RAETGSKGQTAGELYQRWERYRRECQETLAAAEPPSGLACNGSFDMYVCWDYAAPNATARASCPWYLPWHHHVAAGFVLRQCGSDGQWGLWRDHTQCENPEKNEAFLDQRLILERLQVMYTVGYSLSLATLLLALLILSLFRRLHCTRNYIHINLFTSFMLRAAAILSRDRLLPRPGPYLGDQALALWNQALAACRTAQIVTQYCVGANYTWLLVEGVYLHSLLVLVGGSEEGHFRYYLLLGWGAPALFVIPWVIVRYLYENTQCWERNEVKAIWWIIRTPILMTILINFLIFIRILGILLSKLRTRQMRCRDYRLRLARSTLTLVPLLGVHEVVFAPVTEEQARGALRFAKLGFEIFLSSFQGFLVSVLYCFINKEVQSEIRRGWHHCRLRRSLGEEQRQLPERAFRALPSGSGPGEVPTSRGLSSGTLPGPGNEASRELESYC
Experiment: cell-based or functional assay
Starred links: 1 amine or outer side, 2 acyl side, 3 side chain; linkers in the order of their positions; H or OH if unused. Non-standard residues stand in square brackets, D forms with d. Groups on a side chain read outwards from the residue. Primed or numbered codes have the meaning given here. No end group written: not given here. *: point of attachment. γGlu = O=C(O)[C@H](CCC(=O)[*:2])N[*:1]; Stearoyl = CCCCCCCCCCCCCCCCCC(=O)*; αMeF = C[C@](N)(Cc1ccccc1)C(=O)O; αMeK = C[C@](N)(CCCCN)C(=O)O; αMeS = C[C@](N)(CO)C(=O)O; PEG2′ = not defined here; Aib = CC(C)(N)C(=O)O
quantity name: Primary assay EC50 (cAMP), n1 (nM)

Below: 2 binders and their reported Primary assay EC50 (cAMP), n1.
[[record]]
binder = "H[Aib]EGS[αMeF]TSDV[αMeS]S[αMeF]LEGEAAK([PEG2′-PEG2′-PEG2′-Stearoyl])E[αMeF]IA[αMeF]VVKGG-NH2 [SEQ ID NO 56]"
reading_unit = "nM"
numeric_readout = 26

[[record]]
binder = "H[Aib]EGS[αMeF]TSDV[αMeS]S[αMeF]LEGEAAK([PEG2′-PEG2′-γGlu-Stearoyl])E[αMeF]IA[αMeF]VV[αMeK]GG-NH2 [SEQ ID NO 33]"
reading_unit = "nM"
numeric_readout = 25


P. H[Aib]EGS[αMeF]TSDVSS[αMeF]LEGEAAK([PEG2′-PEG2′-γGlu-Stearoyl])E[αMeF]IA[αMeF]VV[αMeK]GG-NH2 [SEQ ID NO 46]
Q. HXEGTFTSDVSSYLEGQAAKEFIAWLVKGRK (Aib 2; K(ε-γE-Palmitoyl) after R30; C-terminal amide) [SEQ ID NO 5]
R. HXEGTFTSDVSSYLEGQAAKEFIAWLVKGR (Aib 2; α-MeSer 8; α-MeSer 11; C-terminal amide) [SEQ ID NO 23]
stdin: Order the items by recorded Primary assay EC50 (cAMP), n1; the first position goes to the largest value. List the labels according to the requested ordering.
stdout: R, Q, P

A. H[Aib]EGS[αMeF]TSDVSK([PEG2′-PEG2′-γGlu-Stearoyl])YLEGEAA[Aib]E[αMeF]IA[αMeF]VVEGG-NH2 [SEQ ID NO 59]
B. HXEGTFTSDVXSYLEGQAAKEFIAWLVKGR (Aib 2; Aib 11; C-terminal amide) [SEQ ID NO 22]
stdin: Pick one: A or B . Which one has the lower reported Primary assay EC50 (cAMP), n1? Indicate which entry you chose by stating its label.
stdout: A
(A: 25.6 nM, B: 480 nM)
